# subject-of-test: MAGI2_3, Q86UL8
# Sequence (Q86UL8 600-682): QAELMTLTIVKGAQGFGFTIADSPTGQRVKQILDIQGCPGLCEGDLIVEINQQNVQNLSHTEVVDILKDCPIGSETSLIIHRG
# assay-comment: holdup assay
# Set-up: key: below the threshold = too weak to quantify, mostly under pKd 3.1 to 4
# study-conditions: plain residues with an end cap or a label only (N-terminal biotin on a linker: ado-ado)
observation-type: pKd

Record excerpt, results attached:
[[record]]
binder = "MLSKQSESAI [FLVCR1, Q9Y5Y0]"
observation_type = "pKd"
result = "below the threshold"

[[record]]
binder = "HLRARKSEWV [GJD4, Q96KN9]"
observation_type = "pKd"
result = "below the threshold"

[[record]]
binder = "DDEDRLVIEI [ZNF831, Q5JPB2]"
observation_type = "pKd"
result = "below the threshold"

[[record]]
binder = "QHKTQLQTLI [BPIFA2, Q96DR5]"
observation_type = "pKd"
result = "below the threshold"

[[record]]
binder = "SARSRLSSNL [HCN2, Q9UL51]"
observation_type = "pKd"
result = "below the threshold"

[[record]]
binder = "IPLDGETEEL [MYOZ1, Q9NP98]"
observation_type = "pKd"
result = "below the threshold"


# map each binder to its pKd
1. RHGSCVETSL [TMEM151B, Q8IW70]
2. VYPNAKVELV [PDLIM4_iso2, P50479;P50479-1]
3. RKPKPSSSCC [RAB9A, P51151]
4. IKAIVDLTGL [TRAF2, Q12933]
5. KKMPSIESDV [GRIN2A, Q12879]
6. PRISRSQSEL [CCDC134, Q9H6E4]

output:
3.5
below the threshold
below the threshold
below the threshold
below the threshold
below the threshold

# map each binder to its pKd
1. QKNRKAQEDL [CES3, Q6UWW8]
2. LRSPRTPSEV [OR10G3, Q8NGC4]
3. VRNLPESEEL [MYOZ3, Q8TDC0]
4. EKKTLIGIKL [GOT1L1, Q8NHS2]

output:
[3.83, 3.55, "below the threshold", "below the threshold"]

Hey, can you go through the list below and give me pKd for every item?
1. QPCFNKLFPL [LPXN, O60711]
2. PEYLGLDVPV [ERBB2, P04626]

output:
1. below the threshold
2. 3.5

Where do these numbers come from? They come from paper PMC9482650.
